Target: Arginase-2, mitochondrial (Homo sapiens) (UniProt P78540)
Sequence (whole entry): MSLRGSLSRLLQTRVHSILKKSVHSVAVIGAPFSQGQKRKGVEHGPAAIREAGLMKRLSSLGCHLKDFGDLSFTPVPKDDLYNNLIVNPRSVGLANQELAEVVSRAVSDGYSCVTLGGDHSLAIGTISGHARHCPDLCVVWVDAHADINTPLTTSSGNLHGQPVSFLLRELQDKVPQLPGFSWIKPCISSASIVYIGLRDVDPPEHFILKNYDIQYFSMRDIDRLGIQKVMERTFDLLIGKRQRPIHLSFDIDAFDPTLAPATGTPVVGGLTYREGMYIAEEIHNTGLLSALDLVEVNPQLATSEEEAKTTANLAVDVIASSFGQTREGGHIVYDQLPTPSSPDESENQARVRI
Experiment: in vitro enzyme assay to detect the production of urea directly proportional to the activity of Arginase II; further: in the data most compounds retested in dose-response had high values
Assay type: functional
Set-up: scale not given: direction of the effect not stated beside the values
Settings: 33.3 µM
observed property: Percent Effect (%)
Numbers only here, please. The scale is %.

Some entries whose results are on file:
molecule	observed property	u	data value
O=C(NCC1CCOCC1)[C@@H]1C[C@@H]2CCN(Cc3ccco3)C[C@H]2O1	Percent Effect	%	-54.7
Cc1nn(C)c(C)c1C1CCCN1C(=O)c1cc[nH]n1 (stereo not drawn)	Percent Effect	%	-1.07
Cn1cc2c(n1)C(CNC(=O)Cc1ccsc1)OCC2 (stereo not drawn)	Percent Effect	%	-7.1
CCN1CCN(c2ccc(F)cc2C(C)NCc2noc(C)n2)CC1 (stereo not drawn)	Percent Effect	%	1.74
CC(C)Cc1noc(CN2CCN(CCO)CC2)n1	Percent Effect	%	0.766
Cc1cnn(C2CCCN(C(=O)Cc3cn4ccccc4n3)C2)c1 (stereo not drawn)	Percent Effect	%	-1.5

Challenge: So what's the measured Percent Effect for this one? `Cc1cnc(NC(=O)c2ccc(-n3ncc(C#N)c3N)cc2)s1`
Response given: -4.18

Challenge: Fill in: Percent Effect of `CC(=O)c1cc(CC(=O)NCc2ccc(CN(C)C)cc2)cs1` is ___
Response given: 0.476

Challenge: Need Percent Effect, item CC(=O)N1CCCC1c1cccc(Cc2ccccc2F)n1 (stereo not drawn)
Response given: -1.62

Challenge: Fill blank: measured Percent Effect of the molecule `COc1ccccc1CC(=O)N1CCC(NCc2cc[nH]c2)CC1` is ____.
Response given: 5.36

Challenge: Recorded Percent Effect of `Cc1ccsc1[C@@H]1CCN(C(=O)CCC(=O)N2CCCCCC2)C[C@H]1O` , please.
Response given: -1.32

Challenge: Need Percent Effect, item Cn1cc2c(n1)C(COCC1CC1)CN(Cc1ccccn1)C2 (stereo not drawn)
Response given: -0.319

Challenge: Entry `CC(C)c1nn(C)c(N(C)C)c1CNCc1ccc2c(c1)OCO2` : reported Percent Effect = ?
Response given: 2.16

Challenge: Percent Effect for `Cc1nc(CO[C@@H]2CN(Cc3cnn(C)c3)[C@@H]3COC[C@@H]32)cs1` ?
Response given: 1.6

----------
# Percent Effect annotations
target: Protein translocase subunit SecA (Escherichia coli (strain K12)); experiment: Assay to Identify E. coli SecA ATPase Inhibitors; type: functional; design: scale not given: direction of the effect not stated beside the values; conditions: 30 µM
Potency and affinity values are given separately.
Just the number please, in %, no unit attached.

molecule	u	data value
CC(=O)N1CCC2(CC1)COCCN2Cc1ccc(F)cc1	%	-4.99
CCOc1cc(CN(C)CCOC)ccc1OC(F)F	%	-7.96
Cc1nc(C)n(C2CCCN(C(=O)Cc3n[nH]c4ccccc34)C2)n1 (centres undefined)	%	-5.17
COc1cccc(NC(=O)N(CCO)Cc2ccsc2)c1	%	-3.38
CC(C)(C)N1CC(C(=O)N2CCN(CCn3cccc3)CC2)CC1=O (centres undefined)	%	-6.81

Challenge: # lookup: Percent Effect of `CC(C)NC(=O)c1nnn(-c2cccc(C(F)(F)F)c2)c1C1CC1`
Response given: -3.01

Challenge: Look up Percent Effect: `O=S(=O)(NCc1ccccc1Cn1cncn1)C1CCCC1`
Response given: -2.89

Challenge: // lookup Percent Effect for `O=C(N1CCCO1)[C@@]12CCO[C@@H]1CCN(Cc1ccccc1)C2`
Response given: -2.49

Challenge: Tell me the measured Percent Effect of `Cn1cc(-c2cnc(N3CCCC3)nc2)cc1C(=O)O` , please.
Response given: -4.18

Challenge: Look up Percent Effect: `O=C(c1ccc2c(c1)OCO2)N1CCC[C@]2(C[C@H](OCC3CC3)CO2)C1`
Response given: -3.85

----------
organism: Homo sapiens; test: To identify inhibition of the IFN signalling (Jak-Stat) pathway via expression of an eGFP reporter gene under the control of an IFN-stimulated response element (ISRE) containing MxA promoter.; format: functional; design: scale not given: direction of the effect not stated beside the values; conditions: 30 µM
observed property: Percent Effect (%)
Field format: number, assumed %, no unit text.

Challenge: Give its Percent Effect value. Item: CC(C)(C)c1nc(CN2CCCC2CCc2ccccc2)no1 (centres undefined)
Response given: 27.2

Challenge: What does the data say about its Percent Effect? Entry: `COCCCNC(=O)NCc1ccc(C)cc1`
Response given: 1.42

Challenge: Need Percent Effect of `Cc1noc(C)c1CN1CC2(CCN(C(=O)c3cscn3)CC2)CC1=O` , thanks.
Response given: 0.0432

Challenge: Any idea what its Percent Effect is? The molecule is `CCc1nc(C(=O)N2CCCC2)nn1-c1ccccc1Cl`
Response given: 4.97

----------
Below, each entry is listed alongside its reported Percent Effect.
biological target: Protein translocase subunit SecA (Escherichia coli (strain K12)) (UniProt P10408); assay: Assay to Identify E. coli SecA ATPase Inhibitors; format: functional; design: scale not given: direction of the effect not stated beside the values; conditions: 30 µM
Sequence (P10408 whole entry): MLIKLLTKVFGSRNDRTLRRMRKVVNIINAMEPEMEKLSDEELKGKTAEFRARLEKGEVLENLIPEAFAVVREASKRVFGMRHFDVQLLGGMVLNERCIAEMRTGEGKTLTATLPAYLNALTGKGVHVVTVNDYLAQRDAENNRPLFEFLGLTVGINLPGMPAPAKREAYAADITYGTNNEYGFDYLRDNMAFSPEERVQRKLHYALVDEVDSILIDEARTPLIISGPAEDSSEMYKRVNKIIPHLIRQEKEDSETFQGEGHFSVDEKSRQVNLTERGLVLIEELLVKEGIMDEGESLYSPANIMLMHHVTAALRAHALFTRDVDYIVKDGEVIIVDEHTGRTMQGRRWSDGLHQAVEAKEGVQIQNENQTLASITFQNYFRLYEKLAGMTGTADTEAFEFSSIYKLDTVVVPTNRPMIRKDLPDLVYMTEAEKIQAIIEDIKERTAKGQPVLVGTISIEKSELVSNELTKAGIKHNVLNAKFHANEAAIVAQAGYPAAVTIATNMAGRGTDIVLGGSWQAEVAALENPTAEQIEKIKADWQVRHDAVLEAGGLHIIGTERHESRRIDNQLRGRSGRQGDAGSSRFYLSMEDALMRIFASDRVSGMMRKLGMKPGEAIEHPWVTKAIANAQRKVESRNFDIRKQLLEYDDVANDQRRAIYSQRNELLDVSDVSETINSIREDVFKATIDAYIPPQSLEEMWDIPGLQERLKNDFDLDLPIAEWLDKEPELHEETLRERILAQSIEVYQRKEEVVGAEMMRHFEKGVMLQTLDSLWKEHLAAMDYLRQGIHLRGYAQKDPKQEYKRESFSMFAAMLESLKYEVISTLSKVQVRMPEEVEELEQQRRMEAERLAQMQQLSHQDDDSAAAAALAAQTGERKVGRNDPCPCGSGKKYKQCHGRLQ
Results with a measured potency or affinity are listed apart.
Give your result in % as a bare value.

// worked examples, Percent Effect included
molecule	Percent Effect, %
O=C(Nc1ccc(F)cc1)N1C[C@H]2CC[C@@H]1CN(Cc1cccnc1)C2	-3.11
O=C(Cn1ccc2c(Cl)cccc21)N[C@@H](C(=O)O)c1ccccc1	-1.64
Cc1csc(CNC(=O)NCCc2ccc3c(c2)OCCO3)n1	-5.64
c1ccc(-c2cnc(CN3CCCC3Cn3cncn3)o2)cc1 (stereo unspecified)	-2.46
CCn1cc2c(n1)CN(Cc1nccs1)CC2COCC1CC1 (stereo unspecified)	-2.47

Challenge: Need Percent Effect of `CC(C)N(C)Cc1cnc2n1CCN(C(=O)NC1CCCC1)C2` , thanks.
Response given: -1.5

----------
Reported Percent Effect by item:
Molecular target: Ubiquitin-activating enzyme e1, putative (Leishmania donovani (strain BPK282A1)) (UniProt E9BSI1)
Sequence (whole entry): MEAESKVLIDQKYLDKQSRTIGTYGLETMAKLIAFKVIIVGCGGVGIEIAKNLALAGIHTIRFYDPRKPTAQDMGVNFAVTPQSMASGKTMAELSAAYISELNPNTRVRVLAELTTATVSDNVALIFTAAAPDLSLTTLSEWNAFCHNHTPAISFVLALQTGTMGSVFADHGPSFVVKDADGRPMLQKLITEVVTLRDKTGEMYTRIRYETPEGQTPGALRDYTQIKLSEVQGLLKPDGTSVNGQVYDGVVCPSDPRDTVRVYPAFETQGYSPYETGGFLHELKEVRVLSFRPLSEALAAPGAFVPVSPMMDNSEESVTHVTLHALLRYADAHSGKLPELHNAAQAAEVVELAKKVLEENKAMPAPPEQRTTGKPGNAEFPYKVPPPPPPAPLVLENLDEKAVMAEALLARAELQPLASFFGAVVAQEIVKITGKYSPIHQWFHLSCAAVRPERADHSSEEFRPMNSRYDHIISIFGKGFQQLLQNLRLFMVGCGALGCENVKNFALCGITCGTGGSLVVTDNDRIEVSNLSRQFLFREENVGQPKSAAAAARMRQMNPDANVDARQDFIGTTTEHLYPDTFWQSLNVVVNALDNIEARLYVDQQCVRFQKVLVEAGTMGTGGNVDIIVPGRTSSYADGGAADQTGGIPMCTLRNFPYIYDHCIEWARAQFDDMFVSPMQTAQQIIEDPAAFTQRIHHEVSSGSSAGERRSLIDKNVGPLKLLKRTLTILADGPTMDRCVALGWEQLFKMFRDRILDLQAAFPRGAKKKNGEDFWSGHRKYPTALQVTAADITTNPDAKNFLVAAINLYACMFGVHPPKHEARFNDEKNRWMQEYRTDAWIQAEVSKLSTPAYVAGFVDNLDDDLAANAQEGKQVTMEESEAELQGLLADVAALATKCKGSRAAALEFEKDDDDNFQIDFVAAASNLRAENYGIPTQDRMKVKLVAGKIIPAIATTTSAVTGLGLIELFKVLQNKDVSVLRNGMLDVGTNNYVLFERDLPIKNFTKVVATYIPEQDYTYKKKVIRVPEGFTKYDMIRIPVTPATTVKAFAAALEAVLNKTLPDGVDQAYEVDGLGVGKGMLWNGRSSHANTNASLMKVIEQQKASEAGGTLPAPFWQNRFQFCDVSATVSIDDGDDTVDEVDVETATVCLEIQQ
Assay: Leishmania donovani Ubiquitin Activating Enzyme (LdE1)
Assay type: functional
Parameters: scale not given: direction of the effect not stated beside the values
Conditions: 30 µM
Results with a measured potency or affinity are listed apart.
Record the result as a number with its unit.

molecule	Percent Effect
Cc1nnc(N2CC[C@H](OCC3CC3)[C@@H](Cc3ccccc3)C2)s1	-5.33%
O=C(CCc1ccc(Br)cc1F)NS(=O)(=O)c1ccc2c(c1)OCCO2	-6.33%

Challenge: Can you look up the measured Percent Effect of CCn1nccc1CNC(=O)C(C)n1cc2c(n1)c(C)nn2C (centres undefined) for me?
Response given: 20%

Challenge: For the molecule shown here, `CC(=O)Nc1cccc(OCCNC(=O)N(C)Cc2ccco2)c1` , give the reported Percent Effect.
Response given: 2.63%

Challenge: Any idea what its Percent Effect is? The molecule is `Cn1cc(CN2CCN(Cc3nccn3C)CC2)cn1`
Response given: 10.8%

Challenge: // lookup Percent Effect for `CCCn1[nH]cc/c1=N\C(=O)CN1CCn2c(nnc2C2CC2)C1`
Response given: 21.1%

Challenge: Returns the measured Percent Effect for the input molecule. Input: `O=C(CCc1nccs1)N1CCN(c2ccccc2F)CC1`
Response given: 7.59%

Challenge: For the molecule shown here, CN(Cc1ccccc1)C1COC2(CCN(Cc3nccs3)CC2)C1 (centres undefined) , give the reported Percent Effect.
Response given: 13.3%

Challenge: Field request: Percent Effect | item: COCC1CN(Cc2cc(C)on2)Cc2cn(C)nc21 (centres undefined)
Response given: 8%

Challenge: Recorded Percent Effect of `CN(Cc1cn2c(n1)CN(c1ncc(F)cn1)CC2)Cc1ccco1` , please.
Response given: 13.3%

Challenge: Which value of Percent Effect has been reported for `CNS(=O)(=O)Cc1ccc(CNc2cncc(-n3cccn3)n2)cc1` in the records?
Response given: 18.2%

Challenge: May I ask what Percent Effect has been recorded for Cc1cc(NC(=O)CN(C)C2CCCN(c3cccnn3)C2)n(C)n1 (centres undefined) ?
Response given: 7.89%

Challenge: Consider the molecule CC(C(=O)N1CCN(c2cnccn2)CC1)n1cncn1 (centres undefined) and give its measured Percent Effect.
Response given: 1.27%

Challenge: Can you share its Percent Effect? I mean this molecule: `Clc1ccccc1C1(c2ccnc(-c3ncccn3)n2)CCNCC1`
Response given: 7.79%

Challenge: Query (molecule): `CCn1c(N)nc2cc(C(=O)NCCc3ccccc3C)cnc21` ; field requested: Percent Effect
Response given: 13.7%

Challenge: Quick one: Percent Effect of `CN1CCc2nc(C3CCN(C(=O)CCC4CCCC4)CC3)ncc2C1` ?
Response given: 26.7%

Challenge: For the molecule COc1cccc(CN2CCCC2c2c(C)nn(C)c2C)c1 (centres undefined) , what Percent Effect is on record?
Response given: -2.53%

Challenge: What does the record list as Percent Effect for `CCc1nnc2n1CCN(C(=O)COCCc1ccccc1)C2` ?
Response given: 15.8%

Challenge: Query (molecule): `COc1ccc(Br)c(C(=O)NCCNc2ccc(C(F)(F)F)cn2)c1` ; field requested: Percent Effect
Response given: 18.2%

Challenge: What does the record list as Percent Effect for `O=C(O)[C@]12CCCN(Cc3ccccc3)C[C@H]1CN(c1ncccn1)C2` ?
Response given: 5.33%

Challenge: So what's the measured Percent Effect for this one? CCOCCN1CCN(Cc2nc(C3CC3)no2)CC1CC (centres undefined)
Response given: 5.48%

Challenge: Form field: reported Percent Effect of `CN(C)C(=O)CS(=O)(=O)Cc1cc(Cl)c2c(c1)OCO2`
Response given: 18.4%

Challenge: For the molecule `O=C(NC1(c2nnn(Cc3ccncc3)n2)CCCC1)c1ccccc1` , what Percent Effect is on record?
Response given: 2.67%

Challenge: So what does the record say about Percent Effect for CCCC(C)CN1CCC(n2cc(CCCO)nn2)CC1 (centres undefined) ?
Response given: 4.17%
